Tested on: A498 renal
Assay: NCI tumour cell line growth inhibition, 48 h
Measured TGI by item

molecule: COC(=O)C(/C(=N/N)C(=O)Nc1ccc(C)c(C)c1)c1nc2ccc(Cl)cc2[nH]c1=O (stereo not given)
experimental.target: A498 renal
result: > 100 µM
--
molecule: CN(C)c1ccc(/C=C/C(=O)c2ccccc2)cc1Br
experimental.target: A498 renal
result: > 100 µM

Let us examine a further case.
[in] Returns the measured TGI for the input molecule. Input: Cc1ccc(-c2c(C#N)c(-c3ccc([N+](=O)[O-])cc3)c(C#N)c(=O)n2NS(=O)(=O)c2ccc(C)cc2)cc1
[out] > 100 µM

* * *

System: HCT-116 colon
Test: NCI tumour cell line growth inhibition, 48 h
Reported TGI values follow for various compounds

Field: example entries. Status: answers known.
compound: CSC(=NC1CC(n2cc(C)c(=O)[nH]c2=O)OC1CO)NC#N (stereo not given)
experimental.target: HCT-116 colon
TGI: > 100 µM

compound: CC1=NN(c2nc(N)nc(C(C)Sc3cc(Cl)c(C)cc3S(N)(=O)=O)n2)C(C)(C)C1 (stereo not given)
experimental.target: HCT-116 colon
TGI: > 10 µM

compound: Cc1cc(=O)oc2c(CNC(C)C(=O)O)c(O)ccc12 (stereo not given)
experimental.target: HCT-116 colon
TGI: > 100 µM

compound: Cc1cc2c(cc1C)N1Cc3c(ccc(C)c3C)N(C2)C1 (tested in a mixture with another compound)
experimental.target: HCT-116 colon
TGI: > 100 µM

Note: attention shifts to another entry.
[in] Give TGI (HCT-116 colon) of the following compound: O=c1[nH]c(=O)n(C2CC(O)C(COP(=O)(O)OC3CC(n4cc(F)c(=O)[nH]c4=O)OC3COP(=O)(O)OC3CC(n4cc(F)c(=O)[nH]c4=O)OC3COP(=O)(O)OC3CC(n4cc(F)c(=O)[nH]c4=O)OC3COP(=O)(O)OC3CC(n4cc(F)c(=O)[nH]c4=O)OC3COP(=O)(O)OC3CC(n4cc(F)c(=O)[nH]c4=O)OC3COP(=O)(O)OC3CC(n4cc(F)c(=O)[nH]c4=O)OC3COP(=O)(O)OC3CC(n4cc(F)c(=O)[nH]c4=O)OC3COP(=O)(O)OC3CC(n4cc(F)c(=O)[nH]c4=O)OC3COP(=O)(O)OC3CC(n4cc(F)c(=O)[nH]c4=O)OC3CO)O2)cc1F (stereo not given)
[out] > 50 µM

* * *

Tested on: UACC-257 melanoma
Experiment: NCI tumour cell line growth inhibition, 48 h
// reported TGI for each item listed

Worked examples follow.
compound: Fc1ccc(-c2ncn(C3CCNCC3)c2-c2ccnc(Oc3ccccc3)n2)cc1
result: > 25 µM
--
compound: Cn1c(N(CCO)CCO)cnc1[N+](=O)[O-]
result: > 100 µM
--
compound: O=C(O)CN(CC(=O)O)Cc1cc2c(cc1O)Oc1cc(O)c(CN(CC(=O)O)CC(=O)O)cc1C21OC(=O)c2ccccc21
result: > 100 µM
--
compound: OC(c1ccsc1)c1cc2ccccc2s1 (stereo unspecified)
result: > 10 µM
--
compound: COc1ccc(-c2nc(N)c(C#N)c3c2CCSc2ccc(C)cc2-3)cc1OC
result: > 76.2 µM

[in] Given the compound Cc1ccc(S(=O)(=O)c2c(N)c3nccn3c3nc4ccccc4nc23)cc1 , what is its reported TGI?
[out] > 100 µM

[in] May I ask what TGI has been recorded for Cc1ccc(S(=O)(=O)NC(=O)C2(Br)S(=O)(=O)OCCOS2(=O)=O)cc1 ?
[out] > 100 µM

[in] Record request: TGI value, item c1ccc(-c2nc3sccn3n2)cc1
[out] > 100 µM

[in] If you can, please state the reported TGI value of O=c1c2cc(Br)ccc2[nH]c(=S)n1-c1ccc(Br)cc1 .
[out] > 100 µM

[in] Could you share which TGI value was measured for CSC(=S)N/N=C/c1ccccc1 ?
[out] > 100 µM

[in] Which value of TGI has been reported for Nc1ccccc1/C=N\Nc1ccccc1 in the records?
[out] > 100 µM
